Where these numbers come from: patent EP4008401A1

Reported activity at 50 µM is given for each of the following compounds.
Test system: human synovial cells
Test: Cartilage pellet culture of human synovial cells (weight of cartilage pellets; differentiation into cartilage cells)
Type: cell-based
Conditions: Homo sapiens, Synovial cell, 504 h; Comparative Example 1; compounds Nos. 16 to 21, 50 µM; weight relative to control taken as 100%; N = 1; read-out: Rate of increase (%)
MEASURED_PARAMETER: activity at 50 µM

>>> df
                                   compound  measured_parameter  measured
0  Oc1cc(O)c2c(c1)O[C@H](c1ccc(O)c(O)c1)[C@H](O)C2 [Epicatechin]   activity at 50 µM      117%
1  O=C1C[C@@H](c2ccc(O)cc2)Oc2cc(O)cc(O)c21   activity at 50 µM      117%
2   O=c1c(O)c(-c2ccc(O)cc2)oc2cc(O)cc(O)c12   activity at 50 µM     95.8%
3         O=c1cc(-c2ccccc2)oc2cc(O)cc(O)c12   activity at 50 µM      108%
4  O=C1c2c(O)cc(O)cc2OCC1c1ccc(O)cc1 (centres unmarked) [Dihydrogenistein]   activity at 50 µM     92.9%
